Every entry's value here was drawn from PubChem BioAssay (NCI).

# key: entry, value: TGI
Test system: IGROV1 ovarian
Assay: NCI tumour cell line growth inhibition, 48 h

Some solved cases for reference:
# molecule, metric, result
data = [
    ("CCCCCCCCCCCCOC1C(C(COC2OC(C(O)CO)C3OC(C)(C)OC23)OC(=O)Nc2ccccc2)OC2OC(C)(C)OC21 (configuration not stated)", "TGI", "15.3 µM"),
    ("N#CC1=C(S)N(C2OC(CO)C(O)C(O)C2O)C(c2ccccc2)=CC1c1ccco1 (configuration not stated)", "TGI", "> 100 µM"),
    ("CCN(CC)/[N+]([O-])=N/OS(=O)(=O)N(C)C", "TGI", "> 100 µM"),
    ("COc1cc(Nc2cc(Cl)cc(Cl)c2)nc(N)n1", "TGI", "44.2 µM"),
    ("O=[N+]([O-])c1ccc(/C=C(/c2ccc([N+](=O)[O-])o2)S(=O)(=O)c2ccccc2)cc1", "TGI", "> 100 µM"),
    ("N#CC1=C(N)Oc2c(ccc3ccccc23)C1c1cc2ccccc2n2nnnc12 (configuration not stated)", "TGI", "> 100 µM"),
    ("CCCN1C(=O)CN(S(=O)(=O)c2ccc(Cl)cc2)C1=O", "TGI", "> 100 µM"),
    ("CN(CC(=O)Nc1ccccc1C(=O)O)c1ccccc1", "TGI", "> 100 µM"),
]

--- query ---
Task: For O=C(Nc1ccc(Cl)cc1Cl)C1C(=O)OC2(CCCCC2)OC1=O , what is its reported TGI?
Result: 64.1 µM

###

System: HL-60(TB) leukemia
Test: NCI tumour cell line growth inhibition, 48 h
metric: TGI (µM)
Response body: numeric value in µM, unit text excluded.

Study these solved cases before continuing.
# molecule, result.number
records = [
    ("COc1cc2c(cc1OCCCOc1cc3c(cc1OC)C(=O)N1CCC[C@H]1C(=O)N3)N=C[C@@H]1CCCN1C2=O", 42.3),
    ("O=S(=O)(Nc1ccccc1)c1ccc(C2CC3(Cl)C(Cl)=C(Cl)C2(Cl)C3(Cl)Cl)cc1 (stereo not given)", 5.79),
    ("COc1cc(NC(=O)COc2ccccc2)c(C(N)=O)cc1OC", 7.25),
]

Task: Request - read-out TGI | tested on HL-60(TB) leukemia | molecule O=C1C(Cl)=CC2(C=C1Cl)CCN=c1c(O)c3c(c(O)c12)=NC=N3
Result: 53.6

###

System: A549 NSCLC
Experiment: NCI tumour cell line growth inhibition, 48 h
Below, each of the compounds is paired with its reported TGI value.
Numeric answer only, unit µM assumed.

# compound, assay.system, TGI, µM
data = [
    ("N#C[Se]CCN1C(=O)c2ccccc2C1=O", "A549 NSCLC", 8.93),
]

Task: Item under review: CN(C)CCNC(=O)c1cccc2c1nc(-c1cccnc1)c1ccccc12 . Reported TGI?
Result: 18.3

Task: Can you share its TGI? I mean this compound: CC(C)c1ccc2c(c1)CCC1C2CCCC1(C)NCc1ccccc1 (stereo unspecified)
Result: 31.1

###

System: U251 CNS
Test: NCI tumour cell line growth inhibition, 48 h
Each record here notes measured TGI.

These recorded examples may help you get a feel for the data.
# compound, TGI
rows = [
    ("CCCCC(C(=O)C(=O)Nc1ccccc1CC)C(=O)C(C)C (centres undefined)", "> 100 µM"),
    ("Cc1nc2ccccc2n1Cc1nnc(-c2ccccc2)o1", "> 100 µM"),
    ("NCCc1ccc(S(=O)(=O)O)cc1[N+](=O)[O-]", "> 100 µM"),
    ("c1ccc(C(NC2=NCCO2)C2CC2)cc1 (centres undefined)", "> 100 µM"),
    ("O=C(OC1OC2COC(=O)c3cc(O)c(O)c(O)c3-c3c(cc(O)c(O)c3O)C(=O)OC3C2OC(=O)[C@@]24CC(=O)[C@@](O)(OC25C(=O)O[C@H]2[C@@H](O)CO[C@@]25O)C2(O)Oc5c(O)c(O)cc(c5C24)C(=O)OC13)c1cc(O)c(O)c(O)c1 (some centres undefined)", "> 100 µM"),
    ("COc1ccc(OC)c(/C=C2/C(=O)N=C(NC(C)=O)N2C)c1", "> 100 µM"),
    ("CC(=O)O[C@H]([C@H](OC(C)=O)[C@H](C)OC(C)=O)[C@@H](/C=C/[C@H]1CC=CC(=O)O1)OC(C)=O", "> 100 µM"),
    ("CN(/N=C/c1ccccn1)C1=NCCN1", "> 100 µM"),
]

Task: Could you share which TGI value was measured for Cc1cc(C=O)c2c(=O)c3c(O)ccc(/C=C/C(C)C)c3oc2c1 ?
Result: > 100 µM

Task: I have this compound here, COc1ccc2cc3n(c(=O)c2c1)CCc1c-3cc(OC)c(OC)c1OC , and I need its recorded TGI.
Result: > 100 µM

Task: Using the record for COC(=O)c1ccc(CCC2=CC(=O)C=CC2=O)cc1 , report its TGI.
Result: 24.8 µM

Task: Dear colleague, I am looking for the recorded TGI of the following compound: CCOC(=O)c1cn(-c2ccc([N+](=O)[O-])cc2)c(=S)n2c1nc1ccccc12
Result: > 100 µM

Task: Reported TGI, compound C=CCN1C(=O)NC(=O)/C(=C/c2c3ccccc3cc3ccccc23)C1=O : ____
Result: 36.5 µM

Task: Recorded TGI for CN(C)CCCC1(c2ccc(F)cc2)OCc2cc(-c3csc4ccccc34)ccc21 (centres undefined) , please?
Result: 3.39 µM

Task: Find the recorded TGI belonging to CCOc1ccc(NC(=O)C(=O)C(/C(=N/N)C(=O)OC)c2nc3ccc([N+](=O)[O-])cc3[nH]c2=O)cc1 (centres undefined) and report it.
Result: > 100 µM

Task: If you can, please state the reported TGI value of Cc1ccccc1NC(=O)CC(=O)NNCC(=O)Nc1nnc(-c2ccccc2)s1 .
Result: > 100 µM

Task: Please give the measured TGI for this compound: C/C(=C\c1csc(C)n1)[C@@H]1C[C@@H]2O[C@]2(C)CCC[C@H](C)[C@H](O)[C@@H](C)C(=O)C(C)(C)[C@@H](O)CC(=O)N1
Result: 0.000391 µM

Task: Look up TGI for this compound: COc1ccc(NC(=S)c2ccc([N+](=O)[O-])o2)cc1
Result: 2.55 µM

Task: Quick check: TGI of CCN1CCN(CC(=O)Nc2nc3ccc(NCc4ccc(Br)cc4)cc3s2)CC1 ?
Result: 3.79 µM
